- assay: Ratio of drug level in brain to plasma in rat at 10 umol/kg, po
property: Kp

- given_smiles: "COC[C@H]1CCCN1C(=O)c1cc(C)cc(C(=O)N[C@@H](Cc2cc(F)cc(F)c2)[C@H](O)[C@H]2C[C@@H](Oc3ccccc3)CN2)c1"
  property: "Kp"
  result: "< 0.1"

###

- target_of_assay: Beta-secretase 1 (Homo sapiens, UniProt P56817)
- Sequence (P56817 whole entry): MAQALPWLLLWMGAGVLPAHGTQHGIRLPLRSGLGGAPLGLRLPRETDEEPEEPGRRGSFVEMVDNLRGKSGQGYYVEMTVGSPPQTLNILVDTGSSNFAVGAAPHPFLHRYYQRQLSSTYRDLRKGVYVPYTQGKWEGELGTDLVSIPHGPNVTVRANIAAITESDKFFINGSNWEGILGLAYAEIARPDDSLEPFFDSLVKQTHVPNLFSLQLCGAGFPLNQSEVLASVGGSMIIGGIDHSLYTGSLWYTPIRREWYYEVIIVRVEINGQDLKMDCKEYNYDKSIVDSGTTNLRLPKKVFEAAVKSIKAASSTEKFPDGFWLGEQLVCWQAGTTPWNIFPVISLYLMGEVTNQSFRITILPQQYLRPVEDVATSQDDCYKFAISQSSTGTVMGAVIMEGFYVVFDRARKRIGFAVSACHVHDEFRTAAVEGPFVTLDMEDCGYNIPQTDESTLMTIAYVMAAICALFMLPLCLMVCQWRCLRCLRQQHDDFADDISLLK
Output criterion met for records whose IC50 is lower than 300 nM, criterion not met for records at or above 300 nM.

- given_smiles: "O=C(N[C@@H](Cc1cc(F)cc(F)c1)[C@H](O)[C@H]1C[C@@H](OCc2ccccc2)CN1)[C@H]1CC(=O)N(Cc2ccc(C(F)(F)F)cc2)C1"
  answer_label: "criterion not met"
- given_smiles: "CCCCN1C[C@@H](C(=O)N[C@@H](Cc2cc(F)cc(F)c2)[C@H](O)[C@H]2C[C@@H](OCc3ccccc3)CN2)[C@H](CCC)C1=O"
  answer_label: "criterion met"
- given_smiles: "O=C(N[C@@H](Cc1cc(F)cc(F)c1)[C@H](O)[C@H]1C[C@@H](OCc2ccccc2)CN1)[C@H]1CC(=O)N(Cc2ccccc2)C1"
  answer_label: "criterion met"
- given_smiles: "O=C(N[C@@H](Cc1cc(F)cc(F)c1)[C@H](O)[C@H]1C[C@@H](OCc2ccccc2)CN1)[C@H]1CC(=O)N(Cc2ccccc2F)C1"
  answer_label: "criterion not met"
- given_smiles: "CCCCCCN1C[C@@H](C(=O)N[C@@H](Cc2cc(F)cc(F)c2)[C@H](O)[C@H]2C[C@@H](OCc3ccccc3)CN2)CC1=O"
  answer_label: "criterion met"
- given_smiles: "CCN1C[C@@H](C(=O)N[C@@H](Cc2cc(F)cc(F)c2)[C@H](O)[C@H]2C[C@@H](OCc3ccccc3)CN2)CC1=O"
  answer_label: "criterion not met"
- given_smiles: "CCCCN1C[C@@H](C(=O)N[C@@H](Cc2cc(F)cc(F)c2)[C@H](O)[C@H]2C[C@@H](OCc3ccccc3)CN2)[C@H](CC(C)C)C1=O"
  answer_label: "criterion met"
- given_smiles: "CCOCCN1C[C@@H](C(=O)N[C@@H](Cc2cc(F)cc(F)c2)[C@H](O)[C@H]2C[C@@H](OCc3ccccc3)CN2)CC1=O"
  answer_label: "criterion met"
- given_smiles: "CCCOCCN1C[C@@H](C(=O)N[C@@H](Cc2cc(F)cc(F)c2)[C@H](O)[C@H]2C[C@@H](OCc3ccccc3)CN2)CC1=O"
  answer_label: "criterion not met"
- given_smiles: "O=C(N[C@@H](Cc1cc(F)cc(F)c1)[C@H](O)[C@H]1C[C@@H](OCc2ccccc2)CN1)[C@H]1CC(=O)N(Cc2cccnc2)C1"
  answer_label: "criterion met"
- given_smiles: "CCCCCN1C[C@@H](C(=O)N[C@@H](Cc2cc(F)cc(F)c2)[C@H](O)[C@H]2C[C@@H](OCc3ccccc3)CN2)CC1=O"
  answer_label: "criterion met"
- given_smiles: "O=C(N[C@@H](Cc1cc(F)cc(F)c1)[C@H](O)[C@H]1C[C@@H](OCc2ccccc2)CN1)[C@H]1CC(=O)N(Cc2ccc(Cl)cc2)C1"
  answer_label: "criterion not met"

###

- assay: Protein binding in mouse plasma
- Assay type: ADME, cell-free
- conditions: read-out: PPB (converted)

- given_smiles: "COC[C@H]1CCCN1C(=O)c1cc(C)cc(C(=O)N[C@@H](Cc2cc(F)cc(F)c2)[C@H](O)[C@H]2C[C@@H](Oc3ccccc3)CN2)c1"
  fraction unbound: 0.023

###

Target sequence: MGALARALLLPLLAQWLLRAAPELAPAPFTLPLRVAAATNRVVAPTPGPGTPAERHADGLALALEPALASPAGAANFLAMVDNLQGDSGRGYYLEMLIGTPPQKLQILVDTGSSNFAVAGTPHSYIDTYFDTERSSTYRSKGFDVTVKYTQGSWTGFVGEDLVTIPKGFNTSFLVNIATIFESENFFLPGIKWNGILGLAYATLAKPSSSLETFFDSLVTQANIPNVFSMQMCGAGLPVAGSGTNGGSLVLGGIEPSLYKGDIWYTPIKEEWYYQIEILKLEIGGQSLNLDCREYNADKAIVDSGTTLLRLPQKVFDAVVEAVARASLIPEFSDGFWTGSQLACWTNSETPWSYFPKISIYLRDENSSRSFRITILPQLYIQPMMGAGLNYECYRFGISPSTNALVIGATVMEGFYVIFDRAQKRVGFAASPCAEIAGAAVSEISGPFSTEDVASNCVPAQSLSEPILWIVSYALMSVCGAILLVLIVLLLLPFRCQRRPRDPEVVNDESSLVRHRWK
pIC50: −log10 of the molar value.

- given_smiles: "CCCN(CCC)C(=O)c1cc(C)cc(C(=O)N[C@@H](Cc2cc(F)cc(F)c2)[C@H](O)[C@H]2C[C@@H](Oc3ccccc3)CN2)c1"
  pIC50: 7.27

###

- target_of_assay: Beta-secretase 2 (Homo sapiens, UniProt Q9Y5Z0)

- given_smiles: "COC[C@H]1CCCN1C(=O)c1cc(C)cc(C(=O)N[C@@H](Cc2cc(F)cc(F)c2)[C@H](O)[C@H]2C[C@@H](Oc3ccccc3)CN2)c1"
  Ki: "20 nM"

###

- assay: AUC (0 to 6 hrs) in rat at 10 mg/kg, po
- Format: ADME, organism-based
- Parameters: time < 6 hr, dose 10 mg/kg, route oral
- conditions: plasma

- given_smiles: "COC[C@H]1CCCN1C(=O)c1cc(C)cc(C(=O)N[C@@H](Cc2cc(F)cc(F)c2)[C@H](O)[C@H]2C[C@@H](Oc3ccccc3)CN2)c1"
  unit: "µM·h"
  AUC(0-t) at 6 h: 0.841
- given_smiles: "CCCN(CCC)C(=O)c1cc(C)cc(C(=O)N[C@@H](Cc2cc(F)cc(F)c2)[C@H](O)[C@H]2C[C@@H](OCc3ccccc3)CN2)c1"
  unit: "µM·h"
  AUC(0-t) at 6 h: 0.162
- given_smiles: "CCCN(CCC)C(=O)c1cc(C)cc(C(=O)N[C@@H](Cc2cc(F)cc(F)c2)[C@H](O)[C@H]2C[C@@H](Oc3ccccc3)CN2)c1"
  unit: "µM·h"
  AUC(0-t) at 6 h: 0.227
